Assay: Caco-2 bi-directional permeability test
Details: human, Caco-2, pH 7.4, Average recovery rate (%) A→B, Compound A concentration 2.00 µM
measure_name: recovery at 2 h, 2 µM (%)

>>> readout_number("CC(C)C[C@@H](C(=O)Nc1ccn(C[C@@H](O)COC(=O)c2cccnc2)n1)N1CC(Oc2ccccc2Cl)=CC1=O")
52.9

----------
Experiment: Preliminary solubility test in solvents at room temperature
Assay type: physicochemical
Conditions: mibk, 25 °C, organic solvent or mixture, thermodynamic from solid, room temperature
Experimental: Table 10 Solubility range of the starting material sample at room temperature The solubility range in the corresponding solvent was calculated based on the mass of the sample and the volume of the added solvent, as shown in Table 28. The data were used as a base to guide the selection of solvent in screening tests. […] The solubility range in the corresponding solvent was calculated based on the mass of the sample and the volume of the added solvent, as shown in Table 35. […]
Counter-ions that a name gives are not always drawn.
measure_name: solubility

>>> result("CC(C)C[C@@H](C(=O)Nc1ccn(C[C@@H](O)COC(=O)c2cccnc2)n1)N1CC(Oc2ccccc2Cl)=CC1=O [Hydrochloride crystal form B]")
"< 1000 µg/mL"

----------
Test: Caco-2 bi-directional permeability test
Conditions: human, Caco-2, pH 7.4, Average recovery rate (%) B→A, Compound A concentration 10.0 µM
measure_name: recovery at 2 h, 10 µM (%)

>>> readout_number("CC(C)C[C@@H](C(=O)Nc1ccn(C[C@@H](O)COC(=O)c2cccnc2)n1)N1CC(Oc2ccccc2Cl)=CC1=O [Compound A]")
81.6

----------
Experiment: Preliminary solubility test in solvents at room temperature
Assay type: physicochemical
Conditions: acn/h2o (1:1) v/v, room temperature
Where a name gives a salt, the structure may show the parent alone.
measure_name: solubility

>>> result("CC(C)C[C@@H](C(=O)Nc1ccn(C[C@@H](O)COC(=O)c2cccnc2)n1)N1CC(Oc2ccccc2Cl)=CC1=O [Hydrochloride crystal form B]")
"> 40 mg/mL"

----------
Test: Caco-2 bi-directional permeability test
Settings: human, Caco-2, pH 7.4, Average recovery rate (%) B→A, Compound A concentration 2.00 µM
measure_name: recovery at 2 h, 2 µM (%)

>>> readout_number("CC(C)C[C@@H](C(=O)Nc1ccn(C[C@@H](O)COC(=O)c2cccnc2)n1)N1CC(Oc2ccccc2Cl)=CC1=O")
87.1

----------
Experiment: Preliminary solubility test in solvents at room temperature
Type: physicochemical
Conditions: EtOH/H2O (1:2) v/v, 25 °C, aqueous with cosolvent or surfactant or cyclodextrin, thermodynamic from solid, EtOH/H2O (1:2) v/v, room temperature
measure_name: solubility

>>> result("CC(C)C[C@@H](C(=O)Nc1ccn(C[C@@H](O)COC(=O)c2cccnc2)n1)N1CC(Oc2ccccc2Cl)=CC1=O")
"2100 to 5300 µg/mL"

----------
Experiment: Caco-2 bi-directional permeability test
Settings: human, Caco-2, pH 7.4, Average recovery rate (%) B→A, Compound A concentration 30.0 µM
measure_name: recovery at 2 h, 30 µM (%)

>>> readout_number("CC(C)C[C@@H](C(=O)Nc1ccn(C[C@@H](O)COC(=O)c2cccnc2)n1)N1CC(Oc2ccccc2Cl)=CC1=O")
82.2

----------
Assay: Preliminary solubility test in solvents at room temperature
Assay type: physicochemical
Conditions: meoh/h2o (1:1) v/v, room temperature
Where a name gives a salt, the structure may show the parent alone.
measure_name: solubility

>>> result("CC(C)C[C@@H](C(=O)Nc1ccn(C[C@@H](O)COC(=O)c2cccnc2)n1)N1CC(Oc2ccccc2Cl)=CC1=O [Hydrochloride crystal form B]")
"11 to 22 mg/mL"

----------
Test: Preliminary solubility test in solvents at room temperature
Format: physicochemical
Conditions: Cyclohexane, 25 °C, organic solvent or mixture, thermodynamic from solid, room temperature
Method: Table 10 Solubility range of the starting material sample at room temperature The solubility range in the corresponding solvent was calculated based on the mass of the sample and the volume of the added solvent, as shown in Table 28. The data were used as a base to guide the selection of solvent in screening tests. […] The solubility range in the corresponding solvent was calculated based on the mass of the sample and the volume of the added solvent, as shown in Table 35. […]
measure_name: solubility

>>> result("CC(C)C[C@@H](C(=O)Nc1ccn(C[C@@H](O)COC(=O)c2cccnc2)n1)N1CC(Oc2ccccc2Cl)=CC1=O")
"< 1100 µg/mL"

----------
Experiment: Preliminary solubility test in solvents at room temperature
Type: physicochemical
Settings: THF, 25 °C, organic solvent or mixture, thermodynamic from solid, room temperature
Protocol: Table 10 Solubility range of the starting material sample at room temperature The solubility range in the corresponding solvent was calculated based on the mass of the sample and the volume of the added solvent, as shown in Table 28. The data were used as a base to guide the selection of solvent in screening tests. […] The solubility range in the corresponding solvent was calculated based on the mass of the sample and the volume of the added solvent, as shown in Table 35. […]
measure_name: solubility

>>> result("CC(C)C[C@@H](C(=O)Nc1ccn(C[C@@H](O)COC(=O)c2cccnc2)n1)N1CC(Oc2ccccc2Cl)=CC1=O [Compound A]")
"> 40 mg/mL"

----------
Assay: Preliminary solubility test in solvents at room temperature
Type: physicochemical
Conditions: thf, 25 °C, organic solvent or mixture, thermodynamic from solid, room temperature
Counter-ions that a name gives are not always drawn.
measure_name: solubility

>>> result("CC(C)C[C@@H](C(=O)Nc1ccn(C[C@@H](O)COC(=O)c2cccnc2)n1)N1CC(Oc2ccccc2Cl)=CC1=O [Hydrochloride crystal form B]")
"< 1100 µg/mL"

----------
Test: Preliminary solubility test in solvents at room temperature
Type: physicochemical
Conditions: NMP, 25 °C, organic solvent or mixture, thermodynamic from solid, room temperature
measure_name: solubility

>>> result("CC(C)C[C@@H](C(=O)Nc1ccn(C[C@@H](O)COC(=O)c2cccnc2)n1)N1CC(Oc2ccccc2Cl)=CC1=O")
"> 44 mg/mL"

----------
Experiment: Preliminary solubility test in solvents at room temperature
Format: physicochemical
Conditions: acetone, 25 °C, organic solvent or mixture, thermodynamic from solid, room temperature
Structures can show the parent of a compound that is named as a salt.
measure_name: solubility

>>> result("CC(C)C[C@@H](C(=O)Nc1ccn(C[C@@H](O)COC(=O)c2cccnc2)n1)N1CC(Oc2ccccc2Cl)=CC1=O [Compound A]")
"> 46 mg/mL"
>>> result("CC(C)C[C@@H](C(=O)Nc1ccn(C[C@@H](O)COC(=O)c2cccnc2)n1)N1CC(Oc2ccccc2Cl)=CC1=O [Hydrochloride crystal form B]")
"< 1 mg/mL"
